Assay: Cytotoxicity test (MTT assay)
Type: cell-based
Conditions: human, normal hepatic LO2 cells, 30 µM, read-out: cell viability
Endpoint name: viability at 48 h, 30 µM (%)
Express your answer in %, writing the number without its unit.

Query string: Provide viability at 48 h, 30 µM value for the following compound: O=C(SC1=NC(c2ccc(Cl)cc2)=CC(c2ccc(Cl)cc2)N1)c1ccccc1CN1C(=O)c2ccccc2C1=O (stereo not shown) [Compound 10c]
Result string: 72.6

###

Assay: Antioxidant activity (DPPH method)
Conditions: 100 µM compound, 100 µM DPPH, 20 min, mean ± SE of four replicates
Quick reference: % DPPH Scavenging of the listed items.
Record the value in %, omitting the unit from your answer.

A selection of reference data follows.
1) O=C(SC1=NC(c2ccc(Cl)cc2)=CC(c2ccco2)N1)c1ccccc1CN1C(=O)c2ccccc2C1=O (stereo not drawn) [Compound 10i] ... 69.11
2) Cc1ccc(C2=CC(c3ccc(Cl)cc3)NC(SC(=O)c3ccccc3CN3C(=O)c4ccccc4C3=O)=N2)cc1 (stereo not drawn) [Compound 10d] ... 80.16
3) Nc1ccc(C2=CC(c3cccc4ccccc34)NC(SC(=O)c3ccccc3CN3C(=O)c4ccccc4C3=O)=N2)cc1 (stereo not drawn) [Compound 10j] ... 93.52
4) O=C(SC1=NC(c2ccc(Cl)cc2)=CC(c2ccc(Cl)cc2)N1)c1ccccc1CN1C(=O)c2ccccc2C1=O (stereo not drawn) [Compound 10c] ... 52.39

Query string: Annotate the compound Nc1ccc(C2=CC(c3ccc(Cl)cc3)NC(SC(=O)c3ccccc3CN3C(=O)c4ccccc4C3=O)=N2)cc1 (stereo not drawn) [Compound 10h] with its measured % DPPH Scavenging.
Result string: 85.74

Query string: Kindly indicate its recorded % DPPH Scavenging. Item: COc1ccc(C2C=C(c3ccc(Cl)cc3)N=C(SC(=O)c3ccccc3CN3C(=O)c4ccccc4C3=O)N2)cc1 (stereo not drawn) [Compound 10b]
Result string: 74.28

Query string: For CN(C)c1ccc(C2C=C(c3ccc(Br)cc3)N=C(SC(=O)c3ccccc3CN3C(=O)c4ccccc4C3=O)N2)cc1 (stereo not drawn) [Compound 10e] , write its % DPPH Scavenging.
Result string: 87.21

Query string: Using known records, supply % DPPH Scavenging for O=C(SC1=NC(c2ccc(Cl)cc2)=CC(c2ccccc2)N1)c1ccccc1CN1C(=O)c2ccccc2C1=O (stereo not drawn) [Compound 10f]
Result string: 57.63

Query string: Report % DPPH Scavenging for O=C(SC1=NC(c2ccccc2)=CC(c2ccccc2)N1)c1ccccc1CN1C(=O)c2ccccc2C1=O (stereo not drawn) [Compound 10a]
Result string: 73.85

###

Parameter IC50, tested on UniProt:Q6V1X1, listed per item.
Sequence (Q6V1X1 whole entry): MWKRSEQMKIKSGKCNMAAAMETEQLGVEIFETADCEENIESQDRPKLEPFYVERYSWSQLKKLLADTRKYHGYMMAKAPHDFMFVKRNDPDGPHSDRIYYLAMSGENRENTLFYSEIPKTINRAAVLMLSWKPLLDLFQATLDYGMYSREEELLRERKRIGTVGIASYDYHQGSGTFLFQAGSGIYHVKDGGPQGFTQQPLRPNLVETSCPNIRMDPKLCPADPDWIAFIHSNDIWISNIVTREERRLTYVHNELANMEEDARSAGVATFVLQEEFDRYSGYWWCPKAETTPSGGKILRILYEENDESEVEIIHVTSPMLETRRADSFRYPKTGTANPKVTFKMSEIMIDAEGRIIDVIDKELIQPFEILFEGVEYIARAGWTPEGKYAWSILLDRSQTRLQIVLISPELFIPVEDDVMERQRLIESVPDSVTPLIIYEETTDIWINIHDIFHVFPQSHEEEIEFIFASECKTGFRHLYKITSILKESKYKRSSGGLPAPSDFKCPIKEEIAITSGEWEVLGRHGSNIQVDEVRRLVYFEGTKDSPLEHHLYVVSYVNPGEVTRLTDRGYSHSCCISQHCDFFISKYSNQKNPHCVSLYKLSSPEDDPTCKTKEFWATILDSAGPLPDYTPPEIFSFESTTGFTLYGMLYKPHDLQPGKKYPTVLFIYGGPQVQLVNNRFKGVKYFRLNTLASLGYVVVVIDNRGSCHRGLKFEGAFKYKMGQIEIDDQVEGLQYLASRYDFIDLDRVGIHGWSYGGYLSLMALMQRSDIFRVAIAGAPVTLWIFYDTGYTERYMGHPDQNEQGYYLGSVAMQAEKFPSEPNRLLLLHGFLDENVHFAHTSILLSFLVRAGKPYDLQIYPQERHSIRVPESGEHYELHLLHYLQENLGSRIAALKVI

1) O=C(SC1=NC(c2ccc(Cl)cc2)=CC(c2ccco2)N1)c1ccccc1CN1C(=O)c2ccccc2C1=O (centres unmarked) [Compound 10i] ... > 100 µM

Query string: Look up IC50 of Nc1ccc(C2=CC(c3cccc4ccccc34)NC(SC(=O)c3ccccc3CN3C(=O)c4ccccc4C3=O)=N2)cc1 (centres unmarked) [Compound 10j] and report it.
Result string: > 100 µM

Query string: Indicate its recorded IC50; the compound in question is Nc1ccc(C2=CC(c3ccc(Cl)cc3)NC(SC(=O)c3ccccc3CN3C(=O)c4ccccc4C3=O)=N2)cc1 (centres unmarked) [Compound 10h]
Result string: > 100 µM

Query string: Report IC50, nothing else, for this compound: Cc1ccc(C2=CC(c3ccc(Cl)cc3)NC(SC(=O)c3ccccc3CN3C(=O)c4ccccc4C3=O)=N2)cc1 (centres unmarked) [Compound 10d]
Result string: > 100 µM

Query string: Give IC50 for COc1ccc(C2C=C(c3ccc(Cl)cc3)N=C(SC(=O)c3ccccc3CN3C(=O)c4ccccc4C3=O)N2)cc1 (centres unmarked) [Compound 10b]
Result string: > 100 µM
